Experiment: chemical genetic growth profiling, strain panel (AID 1159580);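 further: tested at 20 µM; growth read once vehicle control cultures reached saturation at 30 °C; 1 = growth at the plate median or of vehicle wells; lower values mean less growth of the strain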
Conditions: S. cerevisiae deletion strains, growth OD, locus YDR335W, strain msn5, active compounds read low
Out of some 5,500 compounds screened, about 2,000 (36%) were called active. Not shown: some 18% with an inconclusive outcome. The list shows a part of the results.
Endpoint: normalized growth

Example entries begin here.
>>> result("COc1ccc(-c2oc3c(CC=C(C)C)c(O[C@@H]4O[C@H](CO)[C@@H](O)[C@H](O)[C@H]4O)cc(O)c3c(=O)c2O[C@@H]2O[C@@H](C)[C@H](O)[C@@H](O)[C@H]2O)cc1")
"1.02 (inactive)"
>>> result("CC(C)c1c(O)c(-c2cc3c(c(C(C)C)c2O)CCC2C(C)(C)CCC[C@]32C)cc2c1CCC1C(C)(C)CCC[C@]21C (stereo partly specified)")
"0.986 (inactive)"
>>> result("O=C(O)C1=C[C@@H](O)[C@@H](O)[C@H](O)C1")
"0.976 (inactive)"
>>> result("CC1(C)C(=O)C=C[C@@]2(C)C1C=C[C@]1(C)C2CC[C@@]2(C)[C@H](c3ccoc3)OC(=O)C3OC321 (stereo partly specified)")
"0.998 (inactive)"

Input: Record request: normalized growth value, item CC(C)[N+](C)(CCC(C(N)=O)(c1ccccc1)c1ccccc1)C(C)C
Output: 0.99 (inactive)

Input: Record request: normalized growth value, item CC1CCC2(OC1)OC1CC3C4CC[C@H]5C[C@@H](O)CC[C@]5(C)C4CC(=O)[C@]3(C)C1C2C (stereo partly specified)
Output: 1.02 (inactive)

Input: Record request: normalized growth value, item CC(=O)O[C@]1(C(C)=O)CCC2C3C=C(Cl)C4=CC(=O)[C@@H]5C[C@@H]5[C@]4(C)C3CC[C@@]21C (stereo partly specified)
Output: 1.01 (inactive)

Input: Record request: normalized growth value, item CCC1OC(=O)[C@H](C)C(=O)[C@H](C)[C@@H](OC2O[C@H](C)C[C@H](N(C)C)[C@H]2O)[C@](C)(OC)C2(CCCn3cnc(-c4cccnc4)c3)C[C@@H](C)C(=O)[C@H](C)[C@H]3N(C2)C(=O)O[C@]13C (stereo partly specified)
Output: 0.976 (inactive)

Input: Record request: normalized growth value, item COc1ccc(-c2cc(=O)c3c(O)cc(O[C@H]4O[C@H](CO[C@@H]5O[C@@H](C)[C@H](O)[C@@H](O)[C@H]5O)[C@@H](O)[C@H](O)[C@H]4O)cc3o2)cc1
Output: 0.992 (inactive)

Input: Record request: normalized growth value, item CC(CC(O)C1OC1(C)C)[C@@H]1CCC2(C)C3=CCC4C(C)(C)C(=O)CCC4(C)C3CC[C@@]12C (stereo partly specified)
Output: 0.993 (inactive)

Input: Record request: normalized growth value, item CC1(C)C(=O)C=C[C@@]2(C)C1C[C@@H](O)[C@]1(C)C2CC[C@@]2(C)[C@H](c3ccoc3)OC(=O)[C@H]3O[C@]321 (stereo partly specified)
Output: 0.996 (inactive)

Input: Record request: normalized growth value, item CC(C)N(CCC(C(N)=O)(c1ccccc1)c1ccccn1)C(C)C (stereo unspecified)
Output: 0.0613 (active)

Input: Record request: normalized growth value, item CC(=O)Oc1ccc2c(c1C(C)C)CCC1C(C)(C)CCC[C@]21C (stereo partly specified)
Output: 1.02 (inactive)

Input: Record request: normalized growth value, item CCN(Cc1ccncc1)C(=O)C(CO)c1ccccc1 (stereo unspecified)
Output: 1.04 (inactive)

Input: Record request: normalized growth value, item CC(C)c1c(O)ccc2c1CCC1[C@@](C)(CO)CCC[C@]21C (stereo partly specified)
Output: 1.03 (inactive)

Input: Record request: normalized growth value, item CC1(C)C2CC(=O)[C@]3(C)C(CC[C@@]4(C)[C@H](c5ccoc5)OC(=O)C5OC543)[C@@]2(C)[C@@H](O)C[C@H]1O (stereo partly specified)
Output: 1.01 (inactive)

Input: Record request: normalized growth value, item CC1CC[C@@]2(OC1)O[C@H]1CC3C4CC[C@@H]5C[C@@H](O)CC[C@]5(C)C4CC[C@]3(C)[C@H]1[C@@H]2C (stereo partly specified)
Output: 1.06 (inactive)

Input: Record request: normalized growth value, item CC1CC[C@]2(NC1)O[C@H]1CC3C4CC[C@H]5C[C@@H](O)CC[C@]5(C)C4CC[C@]3(C)[C@H]1[C@@H]2C (stereo partly specified)
Output: 0.101 (active)

Input: Record request: normalized growth value, item CN(C)c1ccc2nc3ccc(=[N+](C)C)cc-3sc2c1
Output: 1.07 (inactive)

Input: Record request: normalized growth value, item COC(=O)[C@@]1(C)CCC[C@]2(C)c3ccc(O)c(C(C)C)c3CCC12 (stereo partly specified)
Output: 0.965 (inactive)

Input: Record request: normalized growth value, item C[C@@H]([C@H](O)c1ccccc1)N(C)C
Output: 1.03 (inactive)

Input: Record request: normalized growth value, item O=C1C=C2C(=CCOC2O)O1 (stereo unspecified)
Output: 0.698 (active)

Input: Record request: normalized growth value, item CC1(C)C=CC(=O)[C@@]2(C)C1CC(=O)[C@]1(C)C2CC[C@@]2(C)[C@H](c3ccoc3)OC(=O)C3OC321 (stereo partly specified)
Output: 1 (inactive)

Input: Record request: normalized growth value, item CC(=O)Oc1ccc2c(c1OC(C)=O)OCC1(O)Cc3c(cc(OC(C)=O)c(OC(C)=O)c3OC(C)=O)C21 (stereo unspecified)
Output: 0.998 (inactive)

Input: Record request: normalized growth value, item O=C1[O][Bi][O]c2ccccc21
Output: 1.04 (inactive)
